- ASSAYED TARGET: menin.FITC-MBM1 complex (terbium chelate-labeled menin) (Homo sapiens, UniProt O00255, F410E/T541A)
- Construct: Menin (a.a. 1-610-6×his tag) was labeled with terbium cryptate as follows
- Sequence (O00255 with tags, fused parts or gaps F410E/T541A): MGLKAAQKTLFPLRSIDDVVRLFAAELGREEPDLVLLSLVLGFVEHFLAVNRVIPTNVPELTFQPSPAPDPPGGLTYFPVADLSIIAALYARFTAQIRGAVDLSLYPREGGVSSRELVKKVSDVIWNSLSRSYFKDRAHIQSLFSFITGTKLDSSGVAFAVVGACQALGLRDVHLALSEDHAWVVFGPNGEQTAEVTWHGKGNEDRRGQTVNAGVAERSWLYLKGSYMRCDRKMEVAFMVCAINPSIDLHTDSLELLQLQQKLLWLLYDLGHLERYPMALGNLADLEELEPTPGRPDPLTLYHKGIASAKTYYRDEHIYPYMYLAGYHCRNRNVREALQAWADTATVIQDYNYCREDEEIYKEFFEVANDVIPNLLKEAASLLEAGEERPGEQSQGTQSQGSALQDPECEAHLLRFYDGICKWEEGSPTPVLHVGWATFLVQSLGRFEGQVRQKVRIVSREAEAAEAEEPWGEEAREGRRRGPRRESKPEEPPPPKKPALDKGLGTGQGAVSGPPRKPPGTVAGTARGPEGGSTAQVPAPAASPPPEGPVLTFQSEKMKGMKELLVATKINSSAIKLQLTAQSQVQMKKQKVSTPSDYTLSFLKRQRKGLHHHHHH
- ASSAY: Menin/MLL homogenous time-resolved fluorescence (HTRF) assay
- Type: binding
- COND: location 1; read-out: (2) location 1 Menin HTRF assay (IC50 (nM))
# key: entry, value: IC50
Write the number in nM without appending the unit.

Value of IC50 reported for the molecule FC(F)(F)Cc1cc2c(N3CC4(CC[C@H](NCc5ccccc5)C4)C3)ncnc2s1 [Compound 45] is 20.4

Value of IC50 reported for the molecule CC(C)CNC1CC2(CCN(c3ncnc4sc(CC(F)(F)F)cc34)C2)C1 (stereo not drawn) [Compound 50] is 95.8

Value of IC50 reported for the molecule FC(F)(F)Cc1cc2c(N3CC4(CCC(NCc5ccccc5)C4)C3)ncnc2s1 (single isomer, unassigned) [Compound 46] is 22
